Source listed as PubChem BioAssay AID743395.

Test system: HepG2 viability, CellTiter-Glo ATP luminescence, 72 h
Test: viability loss in human hepatoma cells – cell-based, CellTiter-Glo luminescence, cherry-pick, set 2, cytotoxicity control, dose response (AID 743395)
// reported AC35 per item

INSERT INTO assay_data (compound, endpointresult) VALUES
  ('CCc1ccc(N2CC(C(=O)Nc3ccccc3N3CCCC3)CC2=O)cc1 (stereo not drawn)', '10.8 µM'),
  ('COc1ccc(C2=Nn3c(nnc3-c3ccccc3F)SC2)cc1OC1CCCC1', '11.1 µM'),
  ('Cc1cnc(NC(=O)c2ccc3c(c2)OCCO3)s1', '4.22 µM'),
  ('COc1ccc(S(=O)(=O)Nc2cccc3ccc(O)cc23)cc1', '13.8 µM'),
  ('O=C(NCc1ccccc1)C1Cc2c(-c3cccc(F)c3)ccnc2O1 (stereo not drawn)', '22.1 µM'),
  ('O=C(N/N=C\c1c(O)ccc2ccccc12)c1cncc(Br)c1', '1.18 µM');

Q: What measured AC35 goes with Oc1ccc2ccccc2c1N=Nc1nccs1 ?
A: 11.3 µM

Q: For the compound COc1ccc(CCNc2ncnc3c2oc2ccccc23)cc1OC , what AC35 is on record?
A: 11.3 µM

Q: Which AC35 reading was recorded for the compound O=C(OCc1ccc(Br)cc1)c1cc([N+](=O)[O-])ccc1N1CCOCC1 ?
A: 10.8 µM

Q: Quick one: AC35 of O=C1/C(=C\c2ccc(O)cc2)SC(=S)N1Cc1ccccc1 ?
A: 17.3 µM

Q: What value of AC35 has been recorded for this entry: COc1ccc(Nc2nc(-c3sc(C)nc3C)cs2)cc1
A: 1.29 µM

Q: I would be grateful if you could share the reported AC35 for Cc1ccc2cc(CN(CC3CCCO3)C(=S)Nc3ccccc3)c(=O)[nH]c2c1C (stereo not drawn) .
A: 14.7 µM

Q: Form field: reported AC35 of Cc1cccc(Nc2nc(N)nc(-c3oc4ccccc4c3C)n2)c1
A: 15.4 µM

====

System: HepG2 viability, CellTiter-Glo ATP luminescence, 72 h
Assay: viability loss in human hepatoma cells – cell-based, CellTiter-Glo luminescence, cherry-pick, set 2, cytotoxicity control, dose response (AID 743395)
measuredAttribute: AC35

As a guide, the following entries are already answered.
INSERT INTO results (compound, endpointresult) VALUES
  ('COc1ccc([N+](=O)[O-])cc1Nc1c2ccccc2nc2ccccc12', '18.4 µM'),
  ('COc1cc(NC(=O)N2CCNC2=O)cc(C(=O)Nc2cccc(C(F)(F)F)c2)c1', '1.54 µM'),
  ('O=C(C1CCCC1)N1CC(=O)N2[C@H](CO)[C@@H](c3ccc(-c4ccccc4F)cc3)[C@@H]2C1', '16.3 µM');

Q: Would you mind telling me what AC35 value was observed for COc1cccc2c1C(=O)c1c(O)c3c(c(O)c1C2=O)CC(O)(C(C)=O)CC3OC1CC(N(C)C)C(O)C(C)O1 (centres undefined) ?
A: 0.0849 µM

Q: Which AC35 value is on record for N#Cc1c(-c2ccc(F)cc2)c(-c2ccc(F)cc2)nn(CCO)c1=O ?
A: 4.03 µM

Q: Item COc1ccccc1NC(=S)N(Cc1ccco1)Cc1cc2cc(C)cc(C)c2[nH]c1=O has what recorded AC35?
A: 11.6 µM

Q: AC35 lookup needed for CCOc1ccc2[nH]c(C(=O)N/N=C/c3ccc(OC)cc3)cc2c1 , thanks.
A: 4.77 µM

Q: Item under review: O=C(NCCN1C(=O)S/C(=C\c2ccc(OC(F)F)cc2)C1=O)c1cnccn1 . Reported AC35?
A: 10.5 µM

Q: Can you look up the measured AC35 of CCOc1cc(/C=N/NC(=O)N/N=C/c2ccc(O)c(OCC)c2)ccc1O for me?
A: 20 µM

Q: // AC35 lookup, key: CCCCN1C(=O)CC(C(=O)OCC)=C1C
A: 22 µM

Q: I am curious: what AC35 value has been reported for O=c1ccc2c(-c3ccccc3)c3ccc(O)cc3oc-2c1 ?
A: 17.8 µM

Q: Please look up its AC35: N#CC1=C(N)Oc2cc(N)ccc2C1c1cccc(F)c1 (centres undefined)
A: 6.38 µM

Q: What value of measured AC35 is listed for Cc1cccc(N2CCN(S(=O)(=O)c3cc(-c4cc(C)no4)ccc3C)CC2C)c1 (centres undefined) ?
A: 17.4 µM

Q: # get_value(readout='AC35', item= Cc1ccc(C(=O)NC(=S)NNC(=O)c2ccccc2O)cc1 )
A: 17.2 µM

====

Test system: HepG2 viability, CellTiter-Glo ATP luminescence, 72 h
Assay: viability loss in human hepatoma cells – cell-based, CellTiter-Glo luminescence, cherry-pick, set 2, cytotoxicity control, dose response (AID 743395)
measuredAttribute: AC35

Q: What value of AC35 has been recorded for this entry: CCN(Cc1ccccc1)c1ccc(/C=N/N=C(N)N)cc1
A: 6.82 µM

Q: Tell me the measured AC35 of CC(=O)NC(c1ccc2ccccc2c1)c1ccc2cccnc2c1O (stereo unspecified) , please.
A: 0.641 µM

Q: Which AC35 is listed for C[C@@H]1CN([C@@H](C)CO)C(=O)c2cc(C#CCN(C)C)cnc2O[C@H]1CN(C)Cc1ccc(-c2ccccc2)cc1 ?
A: 11.5 µM

====

Tested on: HepG2 viability, CellTiter-Glo ATP luminescence, 72 h
Experiment: viability loss in human hepatoma cells – cell-based, CellTiter-Glo luminescence, cherry-pick, set 2, cytotoxicity control, dose response (AID 743395)
Item-by-item account of AC35

Some solved entries appear below for comparison.
INSERT INTO assay_data (smilescode, measuredon, measuredattribute, endpointresult) VALUES
  ('Cc1ccccc1-c1nc(CS(=O)(=O)CC(=O)NCc2ccccc2)c(C)o1', 'HepG2 viability, CellTiter-Glo ATP luminescence, 72 h', 'AC35', '18.4 µM'),
  ('COc1ccc(C)cc1Nc1c2c(nc3ccccc13)CCC2', 'HepG2 viability, CellTiter-Glo ATP luminescence, 72 h', 'AC35', '8.79 µM');

Now take the following compound into account.
Q: Given O=C1c2cccc3c(O)ccc(c23)C(=O)N1Cc1ccco1 , state its recorded AC35.
A: 15.6 µM

====

System: HepG2 viability, CellTiter-Glo ATP luminescence, 72 h
Experiment: viability loss in human hepatoma cells – cell-based, CellTiter-Glo luminescence, cherry-pick, set 2, cytotoxicity control, dose response (AID 743395)
Items are presented alongside their recorded AC35.

Some entries whose results are on file:
INSERT INTO assay_data (smilescode, endpointresult) VALUES
  ('O=C(N/N=C/c1c(O)ccc2ccccc12)C(=O)N1CCCC1', '15.7 µM'),
  ('COc1ccc(S(=O)(=O)NCc2ccccn2)cc1NC(=O)c1ccccc1F', '18.5 µM'),
  ('c1coc(-c2nc3ccccc3s2)c1', '7.04 µM');

Let us examine a further case.
Q: Identify the measured AC35 of C[C@@H]1CCCCO[C@H](CN(C)Cc2ccc(Cl)c(Cl)c2)[C@@H](C)CN([C@@H](C)CO)C(=O)c2cc(NS(=O)(=O)c3ccc(Cl)cc3)ccc2O1 for HepG2 viability, CellTiter-Glo ATP luminescence, 72 h.
A: 10.6 µM

====

Entries and their measured AC35 follow.
Test system: HepG2 viability, CellTiter-Glo ATP luminescence, 72 h
Assay: viability loss in human hepatoma cells – cell-based, CellTiter-Glo luminescence, cherry-pick, set 2, cytotoxicity control, dose response (AID 743395)

Recorded AC35, per entry:
INSERT INTO assay_data (compound, measuredattribute, endpointresult) VALUES
  ('c1ccc2c(c1)C1=NCCN1c1ccccc1-2', 'AC35', '3.01 µM'),
  ('CCOC(=O)c1ccc(-c2c(-c3cc(OC)c(OC)c(OC)c3)noc2C)cc1F', 'AC35', '5.6 µM'),
  ('Nc1ccn(C2OC(CO)C(O)C2O)c(=O)n1 (centres undefined)', 'AC35', '6.2 µM'),
  ('CN(C)CCCN(C(=O)c1ccco1)c1nc(-c2ccc(Cl)cc2)cs1', 'AC35', '22.2 µM');

Q: Given O=C(c1ccc(Br)cc1)c1cc([N+](=O)[O-])ccc1N1CCOCC1 , state its recorded AC35.
A: 3.19 µM

Q: Reported AC35, compound COc1ccc(-c2csc(NC(=S)NC(=O)/C=C/c3ccco3)n2)cc1OC : ____
A: 14.3 µM

Q: Fill in: AC35 of Cc1ccc(-c2ccc3c(c2)O[C@H](CN(C)Cc2ccccn2)[C@@H](C)CN([C@H](C)CO)S3(=O)=O)cc1 is ___
A: 13.8 µM

Q: GET /values?readout=AC35&item= CNc1ccc2c3c(cccc13)C(=O)N(C)C2=O
A: 15.7 µM

Q: Given the compound O=Nc1ccc(O)c2ncccc12 , what is its reported AC35?
A: 5.57 µM

Q: Tell me the measured AC35 of COc1ccc2noc3c2c1C(=O)c1ccccc1-3 , please.
A: 15.4 µM
